target-of-assay: mitogen and stress-activated protein kinase 1 (MSK1) (Homo sapiens, UniProt O75582)
Sequence (O75582 whole entry, species assumed): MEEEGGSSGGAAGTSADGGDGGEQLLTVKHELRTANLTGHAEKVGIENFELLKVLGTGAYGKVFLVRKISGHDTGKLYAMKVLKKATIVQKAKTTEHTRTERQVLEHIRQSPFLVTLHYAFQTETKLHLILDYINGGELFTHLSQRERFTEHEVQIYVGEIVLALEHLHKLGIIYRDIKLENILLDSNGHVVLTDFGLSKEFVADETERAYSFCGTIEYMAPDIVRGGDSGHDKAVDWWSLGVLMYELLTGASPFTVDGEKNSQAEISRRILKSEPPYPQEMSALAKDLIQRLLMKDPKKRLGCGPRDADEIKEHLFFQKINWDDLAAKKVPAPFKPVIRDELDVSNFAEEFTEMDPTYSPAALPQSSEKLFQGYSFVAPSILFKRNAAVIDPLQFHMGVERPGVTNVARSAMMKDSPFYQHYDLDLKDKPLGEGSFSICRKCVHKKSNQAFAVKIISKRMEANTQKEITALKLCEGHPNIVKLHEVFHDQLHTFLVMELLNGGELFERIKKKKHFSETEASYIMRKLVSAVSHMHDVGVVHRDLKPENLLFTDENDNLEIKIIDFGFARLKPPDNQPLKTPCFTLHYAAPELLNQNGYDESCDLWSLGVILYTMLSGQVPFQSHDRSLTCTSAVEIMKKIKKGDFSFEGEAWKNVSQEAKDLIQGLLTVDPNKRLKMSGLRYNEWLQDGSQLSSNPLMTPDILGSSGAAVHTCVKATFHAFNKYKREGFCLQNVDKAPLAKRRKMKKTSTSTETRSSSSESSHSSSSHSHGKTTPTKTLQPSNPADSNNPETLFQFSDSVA
assay-overview: Panel of protein kinases: MSK1
Type: biochemical
run-parameters: method of Davies et al.
property-label: Kinase MSK1 inhibition

CCNCc1cncc(-c2ccc3[nH]nc(-c4nc5ccccc5[nH]4)c3c2)c1C: − (Weak inhibition <50%)
CCNCc1cncc(-c2ccc3[nH]nc(-c4nc5c(C(=O)NC)cccc5[nH]4)c3c2)c1C: − (Weak inhibition <50%)
CCNCc1cncc(-c2ccc3[nH]nc(-c4nc5c(F)cc(F)cc5[nH]4)c3c2)c1C: − (Weak inhibition <50%)
CCNCc1cncc(-c2ccc3[nH]nc(-c4nc5c(SC)cccc5[nH]4)c3c2)c1C: − (Weak inhibition <50%)
CCNCc1cncc(-c2ccc3[nH]nc(-c4nc5cc(F)ccc5[nH]4)c3c2)c1C: − (Weak inhibition <50%)
CCNCc1cncc(-c2ccc3[nH]nc(-c4nc5c(NC(C)=O)cccc5[nH]4)c3c2)c1C: − (Weak inhibition <50%)
